test: soluble fraction after stress (log2 fold change); higher = more stays soluble; pooled small domains, quantitative proteomics; conditions: stress: 50 degC
# soluble fraction (log2) annotations

sequence_string: HMAQLPADLSKVKSSQISDQQLTQIAQQAKNSGQSEQAVLQELKQRGLPDTEIQALGARISGLMQ
observed_result: 0.137
//
sequence_string: HMSFNGTILSNYQKTYPNLAKFTYDQANDALVYEGNFIKLNGYGLSRIDPVFFNMNPDEIFIFIKNG
observed_result: -3.51
//
sequence_string: HMNDVGKVLNQLGERDRMILLLTYWDELPLKEAARILEVSENNAKIILFRARSRFASLWSAGS
observed_result: -3.13
//
sequence_string: HMNVAVSEADAKAAALERVSGATEADIRMELELDDGYYVYEGDIIYQQKEYEFEIDAQTGKFLKWSEER
observed_result: -0.14

Q: Find the recorded soluble fraction (log2) belonging to `HMKTFSFEILADTVKKQRKAKGMTQAELSEATGINRSMIGQMENMTFKPSIEQLEALSQALDFNVIDLYTE` and report it.
Result: -0.196

Q: Need soluble fraction (log2), item `HMQQEAVNLVQSRGQQAIEPVHIMQGVMKVGENVTNFIFQKLGMNGQQVALVVDKQIDSLPKVSGGEPYL`
Result: 0.0273

Q: Looking for the measured soluble fraction (log2) of `HMDPALSPAEQKIWDLLAAGETHIDDLVRASGLPVATVNSALVMMEMKEVISQVAAKTYRRNRRN` , can you help?
Result: -0.0324

Q: I would be grateful if you could share the reported soluble fraction (log2) for `HMALDLNEDEKLLVELIEKAGGTAGLGELKEASGLSGKKWDKTTKNLSKEGLIKVEKNESGLWVHLT` .
Result: 0.153

====

assay: soluble fraction after stress (log2 fold change); higher = more stays soluble; pooled small domains, quantitative proteomics; conditions: stress: 50 degC
Category scheme (soluble fraction (log2)): lower range: < -0.3; middle range: ≥ -0.3 and < 0.08; upper range: ≥ 0.08

Solved entries:
sequence_string: HMIQNTGMMESGDSIRGMALDAGFPLLMVVGYRGWTRKGNTPDSAAVYTEPFLNAFRLNYYLVEHDE
label_value: upper range
//
sequence_string: HMGVISRVITFWQNGFTVDDGPLRAFDDPANMAFMESIGRGEAPAELAPKTRTQRVNINLVQRHEPYSAPK
label_value: middle range
//
sequence_string: HMTEAVYMPALQNKTLEEAQRIVEQYDLELEYTYEANAQVEEGRILSQTPQMGVLVERGEKVQAVVSLG
label_value: upper range
//
sequence_string: HMQPASPELNNQEKKVLQALPENEVIHIDELSDKIQIPVGELLTVLLSLEMKETVIQEPGKFFRRR
label_value: lower range
//
sequence_string: HMDLLVWRVADEDAGERIDKLVVDSLDDVSRTAVQQWIKDGLVTVNGKTVKPNYKAAAGDEVAVSVPEPE
label_value: upper range

Q: // bin(item) where item = `HMSLSPAATRSRGYPSVLLTMKAPERLVSAAGPDRRAYLVGTDPLVIELPGVKGLYKVDPDQIVFE`
Result: middle range

Q: Category of `HMRPPLRAAIIDHLARDWHTVAELARLLPASGAHVSRLVVELRAVGAVDERISHPDWPGNRPTEYRLRRA` , please.
Result: lower range

Q: Which soluble fraction (log2) band matches `HMNEPSSYGYAISVALDRNGLGTVKGGTLYPLLARLEQAAHVETRWEAGDGGPGRKYYTITDSGRS` ?
Result: middle range

Q: Category of `HMWTPLVVAVLIGGTHRFGELRAAVGGITPKVLTETLRSMERDGLVVREQTPGVPPRVDYALTPLGA` , please.
Result: lower range

Q: Input `HMDIVEIYVGEEDGERIDSYLAQELNNVSRSYVQGLIKNQLITVNGNHVKPKHIVKEGEHIIVNIPPPKV` ; output its category
Result: upper range

Q: Form: Item = `HMLPDLLNGRVIPSPEKVIRARLNRGVWELLVQWVGRAPSDATWENLLEFKSAYPSVQLEDALF` ; Class = ?
Result: lower range

Q: The entry to classify is `HMAVFRVGDKVKSMEGMIGEVRGINGRLIQVATPYGLRDYYPHQITKVENPLAAAPAPLNEEA` ; which class holds it?
Result: upper range

Q: Consider `HMRTIGDSVYEKIKYDIVHLTLKPGEKLSEASLAEKYGISKAPIRVALRKLQEEGLIVIRPQSGSIVSP` . To which soluble fraction (log2) class does it belong?
Result: lower range

Q: Band for `HMGRKIDDPSSMTGAEKAAVILLALGDEQRQLWEMMDDEEIRVVSQAMVNLGNVTSGAVEKLIMEFVGSMS` ?
Result: middle range

Q: Lab note: which band did `HMIKKAILPVAGLGTRFLPASKSIPKEMVTVVDRPAIEYVVREAVEAGIEQIILVTHSSKASIENYFDR` land in?
Result: middle range

Q: Kindly identify the class of `HMDPTIAAIRKKLKNWTIVEVHMTREELEQAVIDGKVDVFLSSAGFYRRLVRFGARDLATAMSPAYPD` .
Result: lower range
